Tested on: M-07e cells
Test: M-07e cellular assay (SCF-mediated cell proliferation)
Type: cell-based
Conditions: Homo sapiens, 72 hours, CellTiter Glo
property measured: EC50

Data point: COC(=O)N1C[C@@H](c2nc(-c3cnc(C)c(NC(=O)c4cnn5ccc(N6CC7(C6)CC(O)(C(F)F)C7)cc45)c3)no2)[C@@H]1C [Example 281-17] ; EC50 = < 100 nM

Data point: Cc1ccc(-c2noc([C@H]3C[C@@H]3F)n2)cc1NC(=O)c1cnn2cc(Cl)c(-c3c(C)nn(C(F)F)c3C)cc12 [Example 167] ; EC50 = > 1000 nM

Data point: Cc1ccc(-c2ncc(C(C)C)cn2)cc1NC(=O)c1cnn2ccc(N3CC4(COC4)C3)cc12 [Example 345] ; EC50 = < 100 nM

Data point: Cc1ccc(-c2noc([C@H]3C[C@@H]3F)n2)cc1NC(=O)c1cccnc1 [Example 3] ; EC50 = > 1000 nM

Data point: Cc1ccc(-c2noc([C@H]3C[C@@H]3F)n2)cc1NC(=O)c1cnc(-c2ccc(NC(N)=O)cc2)o1 [Example 308-47] ; EC50 = 100 to 1000 nM

Data point: Cc1ccc(-c2noc(N3CC(F)(F)C3)n2)cc1NC(=O)c1cnn2ccc(N3CC4(C3)CC(O)(C(F)F)C4)cc12 [Example 281-98] ; EC50 = < 100 nM

Data point: Cc1ncc(-c2cn(C3CC3)nn2)cc1NC(=O)c1cnn2ccc(N3CC4(C3)CC(O)(C(F)F)C4)cc12 [Example 377] ; EC50 = < 100 nM

---

Field: pEC50. Provide a value for each of the compounds that follow.
Tested on: M-07e cells
Test: M-07e cellular assay (SCF-mediated cell proliferation)
Assay type: cell-based
Conditions: Homo sapiens, 72 hours, CellTiter Glo
pEC50: −log10 of the molar value.

Data point: "COC(=O)N1CC(c2nc(-c3ccc(Cl)c(NC(=O)c4cnn5cc(-c6cn(C(F)F)nn6)ccc45)c3)no2)C1" ; pEC50 = > 7.00

Data point: "Cc1ccc(-c2noc([C@H]3C[C@@H]3F)n2)cc1NC(=O)c1cnn2ccc(-n3cc(NC(=O)OC(C)(C)C)cn3)cc12" ; pEC50 = 6.00 to 7.00

Data point: "Cc1ccc(-c2noc([C@H]3C[C@H](OC(F)F)C3)n2)cc1NC(=O)c1cnn2ccc(N3CC4(COC4)C3)cc12" ; pEC50 = > 7.00

Data point: "Cc1ccc(-c2noc([C@H]3C[C@@H]3F)n2)cc1NC(=O)c1cnc(-c2ccc3[nH]c4c(c3c2)CCN(C(=O)OC(C)(C)C)C4)o1" ; pEC50 = 6.00 to 7.00

Data point: "COc1ccc(-n2cc(C(=O)Nc3cc(-c4noc([C@H]5C[C@@H]5F)n4)ccc3C)cn2)cc1" ; pEC50 = 6.00 to 7.00

Data point: "Cc1ccc(-c2ccc(C3CC3)cn2)cc1NC(=O)c1cnn2ccc(N3CC4(C3)CC(O)(C(F)F)C4)cc12" ; pEC50 = > 7.00

---

Target: Recombinant human c-KIT kinase (Homo sapiens (Human), UniProt P10721)
Sequence (P10721 26-976): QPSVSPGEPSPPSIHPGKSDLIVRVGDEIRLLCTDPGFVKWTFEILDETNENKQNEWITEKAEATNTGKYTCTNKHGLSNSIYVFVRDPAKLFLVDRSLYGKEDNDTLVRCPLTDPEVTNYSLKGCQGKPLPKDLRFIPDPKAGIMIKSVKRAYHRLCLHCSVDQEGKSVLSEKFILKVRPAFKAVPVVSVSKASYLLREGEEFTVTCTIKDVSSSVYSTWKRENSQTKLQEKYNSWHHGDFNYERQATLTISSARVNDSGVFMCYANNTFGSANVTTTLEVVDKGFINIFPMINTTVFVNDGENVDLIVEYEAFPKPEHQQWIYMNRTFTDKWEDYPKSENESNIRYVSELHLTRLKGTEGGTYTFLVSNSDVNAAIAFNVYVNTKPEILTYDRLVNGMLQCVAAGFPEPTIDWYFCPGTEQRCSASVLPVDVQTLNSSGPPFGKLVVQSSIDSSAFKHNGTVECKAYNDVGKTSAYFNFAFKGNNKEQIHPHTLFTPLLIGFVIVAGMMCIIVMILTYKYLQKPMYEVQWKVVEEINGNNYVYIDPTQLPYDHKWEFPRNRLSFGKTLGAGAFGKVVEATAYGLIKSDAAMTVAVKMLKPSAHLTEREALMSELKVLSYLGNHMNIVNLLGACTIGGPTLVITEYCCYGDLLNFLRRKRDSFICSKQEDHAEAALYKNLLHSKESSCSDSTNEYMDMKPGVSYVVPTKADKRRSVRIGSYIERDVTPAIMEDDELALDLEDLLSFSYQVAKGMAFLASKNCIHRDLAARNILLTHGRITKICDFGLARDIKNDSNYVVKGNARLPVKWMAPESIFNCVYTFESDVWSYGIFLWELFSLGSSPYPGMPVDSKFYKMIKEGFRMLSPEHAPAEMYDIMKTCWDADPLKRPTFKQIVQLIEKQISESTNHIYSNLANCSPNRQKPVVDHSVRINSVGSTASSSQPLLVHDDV
Test: c-KIT kinase chemiluminescence assay (ADP-Glo)
Settings: ATP 50 μM
pIC50: −log10 of the molar value.
Field: pIC50. Provide a value for each of the compounds that follow.

Data point: "Cc1ccc(-c2ncc(C3CC3)cn2)cc1NC(=O)c1cnn2cc(-c3cn(CC(C)(C)O)nn3)ccc12" ; pIC50 = > 7.00

Data point: "Cc1ccc(-c2noc(C3CN(CC(F)(F)F)C3)n2)cc1NC(=O)c1cnn2ccc(N3CC4(C3)CC(O)(C(F)F)C4)cc12" ; pIC50 = > 7.00

Data point: "Cc1ccc(-c2noc(C3CC4(C3)CN(C(=O)[C@H]3C[C@@H]3F)C4)n2)cc1NC(=O)c1cnn2ccc(N3CC4(C3)CC(O)(C(F)F)C4)cc12" ; pIC50 = 6.00 to 7.00

Data point: "Cc1ccc(-c2noc([C@H]3C[C@@H](OC(F)(F)F)C3)n2)cc1NC(=O)c1cnc(-c2ccc3c(c2)CC(=O)N3)o1" ; pIC50 = > 7.00

Data point: "Cc1ncc(-c2noc(C3CN(C(=O)C4(F)CC4)C3)n2)cc1NC(=O)c1cnn2ccc(N3CC4(C3)CC(O)(C(F)F)C4)cc12" ; pIC50 = < 6.00

Data point: "Cc1ccc(-c2noc([C@H]3C[C@@H]3F)n2)cc1NC(=O)c1cnc(-c2cccc3[nH]ncc23)o1" ; pIC50 = > 7.00

Data point: "Cc1cc(C)n(-c2ncc(C(=O)Nc3cc(-c4noc([C@H]5C[C@@H]5F)n4)ccc3C)o2)n1" ; pIC50 = < 6.00

Data point: "Cc1ccc(-c2noc([C@H]3C[C@@H]3F)n2)cc1NC(=O)c1cnc2c(cnn2C(=O)C(C)C)c1" ; pIC50 = < 6.00

Data point: "Cc1ccc(-c2noc([C@H]3C[C@@H]3F)n2)cc1NC(=O)c1cnn2cc(-c3nn[nH]n3)ccc12" ; pIC50 = 6.00 to 7.00

---

Field: pEC50. Provide a value for each of the molecules that follow.
Tested on: M-07e cells
Assay: M-07e cellular assay (SCF-mediated cell proliferation)
Format: cell-based
Conditions: Homo sapiens, 72 hours, CellTiter Glo
pEC50: −log10 of the molar value.

Data point: "Cc1ccc(-c2noc([C@H]3C[C@@H]3F)n2)cc1NC(=O)c1cnn2ccc(N3CC4(CCN4)C3)cc12" ; pEC50 = 6.00 to 7.00

Data point: "O=C(Nc1cc(-c2noc([C@H]3C[C@@H](C(F)(F)F)C3)n2)ccc1Cl)c1cnn2ccc(N3CC4(C3)CC(O)(C(F)F)C4)cc12" ; pEC50 = > 7.00

Data point: "Cc1ccc(-c2noc([C@H]3C[C@@H]3F)n2)cc1NC(=O)c1cnn2ccc(-c3cnc(N)cc3C)cc12" ; pEC50 = > 7.00

---

Field: EC50. Provide a value for each of the compounds that follow.
Tested on: M-07e cells
Assay: M-07e cellular assay (SCF-mediated cell proliferation)
Type: cell-based
Conditions: Homo sapiens, 72 hours, CellTiter Glo

Data point: "O=C(Nc1cc(-c2noc(N3CC(F)(F)C3)n2)ccc1Cl)c1cnn2ccc(N3CC4(C3)CC(O)(C(F)F)C4)cc12" ; EC50 = < 100 nM

Data point: "Cc1ccc(-c2noc([C@H]3C[C@@H]3F)n2)cc1NC(=O)c1cnn2ccc(N3C[C@H]4C[C@@H]3CO4)cc12" ; EC50 = < 100 nM

Data point: "Cc1ccc(-c2noc(N3CC(O)(C(F)(F)F)C3)n2)cc1NC(=O)c1cnn2ccc(N3CC4(C3)CC(O)(C(F)F)C4)cc12" ; EC50 = < 100 nM

Data point: "Cc1ccc(-c2noc([C@H]3C[C@@H]3F)n2)cc1NC(=O)c1cnn(-c2ccccc2)c1C" ; EC50 = > 1000 nM

Data point: C=CCC1c2ccccc2-c2ncc(C(=O)Nc3cc(-c4noc([C@H]5C[C@@H]5F)n4)ccc3C)n21 (stereo partly shown) ; EC50 = 100 to 1000 nM

Data point: "Cc1ccc(-c2ncc(OC(F)(F)F)cn2)cc1NC(=O)c1cnc(-c2ccc3c(c2)CC(=O)N3)o1" ; EC50 = 100 to 1000 nM

Data point: "Cc1ccc(-c2noc(C3CN(C(=O)OC4CC4)C3)n2)cc1NC(=O)c1cnc(-c2ccc3c(c2)CC(=O)N3)o1" ; EC50 = 100 to 1000 nM

---

System: M-07e cells
Assay: M-07e cellular assay (SCF-mediated cell proliferation)
Type: cell-based
Conditions: Homo sapiens, 72 hours, CellTiter Glo
property measured: EC50

Data point: "Cc1ccc(-c2noc([C@H]3C[C@@H]3F)n2)cc1NC(=O)c1cnn2ccc(NC(=O)OCc3ccccc3)cc12" ; EC50 = 100 to 1000 nM

Data point: "Cc1ccc(-c2ccc(C3CC3)nn2)cc1NC(=O)c1cnn2ccc(N3CC4(COC4)C3)cc12" ; EC50 = < 100 nM

Data point: "Cc1ncc(-c2noc([C@@H]3CN(C(=O)C4(F)CC4)[C@H]3C)n2)cc1NC(=O)c1cnn2ccc(N3CC4(C3)CC(O)(C(F)F)C4)cc12" ; EC50 = 100 to 1000 nM

Data point: "Cc1ncc(-c2ccc(OC(F)(F)F)cn2)cc1NC(=O)c1cnn2ccc(N3CC4(C3)CC(O)(C(F)F)C4)cc12" ; EC50 = < 100 nM

Data point: "COC(=O)N1CC(c2nc(-c3cc(NC(=O)c4cnc(-c5ccc6c(c5)CC(=O)N6)o4)c(C)cc3F)no2)C1" ; EC50 = 100 to 1000 nM

Data point: "Cc1ccc(-c2noc([C@H]3C[C@@H]3F)n2)cc1NC(=O)c1cnn2ccc(-c3nnc(N)nc3C)cc12" ; EC50 = < 100 nM

Data point: "COC1(OC)CC2(CN(c3ccn4ncc(C(=O)Nc5cc(-c6noc([C@H]7C[C@@H]7F)n6)ccc5C)c4c3)C2)C1" ; EC50 = < 100 nM

Data point: "Cc1ncc(-c2ccc(OC(F)F)cn2)cc1NC(=O)c1cnn2ccc(N3CC4(C3)CC(O)(C(F)F)C4)cc12" ; EC50 = < 100 nM

Data point: "COC(=O)N1CC(c2nc(-c3ccc(C)c(NC(=O)c4cnc(-c5ccc6c(c5)CC(=O)N6)o4)c3)no2)C1" ; EC50 = 100 to 1000 nM

Data point: "Cc1ccc(-c2noc([C@H]3C[C@@H]3F)n2)cc1NC(=O)c1cnc(-c2ccc(C(C)(C)O)s2)o1" ; EC50 = > 1000 nM

Data point: "Cc1ncc(-c2noc(C3(F)CN(C(=O)OC(C)(C)C)C3)n2)cc1NC(=O)c1cnn2ccc(N3CC4(C3)CC(O)(C(F)F)C4)cc12" ; EC50 = 100 to 1000 nM

Data point: "CC(=O)N1CC(c2nc(-c3ccc(C)c(NC(=O)c4cnn5ccc(N6CC7(COC7)C6)cc45)c3)no2)C1" ; EC50 = > 1000 nM

Data point: Cc1ccc(-c2noc(C3C[C@@H]3F)n2)cc1NC(=O)c1cnn2ccc(N3C[C@H](CS(C)(=O)=O)[C@@H]3C)cc12 (stereo partly shown) ; EC50 = < 100 nM
